- measurement.target: Cyclin-dependent kinase 14 (Homo sapiens, UniProt O94921)
- Sequence (O94921 whole entry): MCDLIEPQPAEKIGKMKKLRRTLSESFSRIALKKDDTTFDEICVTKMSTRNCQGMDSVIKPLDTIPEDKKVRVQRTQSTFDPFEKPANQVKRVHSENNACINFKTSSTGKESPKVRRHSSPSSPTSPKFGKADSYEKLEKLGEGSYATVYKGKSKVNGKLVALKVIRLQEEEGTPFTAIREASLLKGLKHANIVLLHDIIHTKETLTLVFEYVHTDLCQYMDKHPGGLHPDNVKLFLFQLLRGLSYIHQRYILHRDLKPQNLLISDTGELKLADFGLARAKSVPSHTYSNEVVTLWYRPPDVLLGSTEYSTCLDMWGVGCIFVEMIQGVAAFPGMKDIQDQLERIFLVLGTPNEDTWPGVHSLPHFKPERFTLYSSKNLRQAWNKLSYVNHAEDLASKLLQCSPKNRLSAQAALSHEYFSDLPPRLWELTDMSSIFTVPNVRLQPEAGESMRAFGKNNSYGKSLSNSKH
endpoint.label: IC50 (nM)
Write down the numeric answer in nM and omit the unit.

Endpoint output: IC50 of `Cc1c2cc(cc1C(=O)Nc1cc(CN3CCN(C)CC3)cc(C3CC3)c1)OCCCCCCCNC(=O)c1ccc3ncc(n3n1)C#C2` . Value?
155

----------
- measurement.target: Tyrosine-protein kinase receptor UFO (Homo sapiens)
- Sequence (P30530 whole entry): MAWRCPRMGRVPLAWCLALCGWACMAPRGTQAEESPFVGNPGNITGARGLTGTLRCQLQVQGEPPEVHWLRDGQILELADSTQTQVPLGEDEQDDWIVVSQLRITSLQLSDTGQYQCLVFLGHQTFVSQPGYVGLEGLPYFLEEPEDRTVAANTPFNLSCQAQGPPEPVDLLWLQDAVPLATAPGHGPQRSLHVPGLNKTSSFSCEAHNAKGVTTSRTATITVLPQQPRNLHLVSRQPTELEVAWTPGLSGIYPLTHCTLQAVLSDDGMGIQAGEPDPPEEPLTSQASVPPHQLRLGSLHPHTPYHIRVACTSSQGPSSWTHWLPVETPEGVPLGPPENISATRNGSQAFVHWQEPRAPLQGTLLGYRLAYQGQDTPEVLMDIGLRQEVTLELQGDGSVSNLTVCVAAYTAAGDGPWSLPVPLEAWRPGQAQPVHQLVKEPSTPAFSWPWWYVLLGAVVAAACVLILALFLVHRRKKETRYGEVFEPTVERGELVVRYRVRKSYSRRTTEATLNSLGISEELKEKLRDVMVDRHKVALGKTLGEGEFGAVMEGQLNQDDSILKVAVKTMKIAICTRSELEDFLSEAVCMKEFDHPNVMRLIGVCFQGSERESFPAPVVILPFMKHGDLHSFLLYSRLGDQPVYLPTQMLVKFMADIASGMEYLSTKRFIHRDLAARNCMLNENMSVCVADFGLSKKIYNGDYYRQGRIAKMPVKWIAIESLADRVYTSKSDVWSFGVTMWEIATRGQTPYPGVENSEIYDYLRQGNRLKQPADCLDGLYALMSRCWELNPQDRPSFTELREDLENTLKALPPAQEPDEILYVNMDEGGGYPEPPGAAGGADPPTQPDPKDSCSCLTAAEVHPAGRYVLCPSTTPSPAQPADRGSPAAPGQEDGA
endpoint.label: IC50 (nM)
Write down the numeric answer in nM and omit the unit.

Endpoint output: IC50 of `Cc1c2cc(cc1C(=O)Nc1cc(CN3CCN(C)CC3)cc(C3CC3)c1)OCCCCCCCNC(=O)c1ccc3ncc(n3n1)C#C2` . Value?
1550
